Tested on: SpTbr T-box DNA-binding domain (GST fusion);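 further: protein at 200 nM in PBS on universal double-stranded arrays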
Sequence: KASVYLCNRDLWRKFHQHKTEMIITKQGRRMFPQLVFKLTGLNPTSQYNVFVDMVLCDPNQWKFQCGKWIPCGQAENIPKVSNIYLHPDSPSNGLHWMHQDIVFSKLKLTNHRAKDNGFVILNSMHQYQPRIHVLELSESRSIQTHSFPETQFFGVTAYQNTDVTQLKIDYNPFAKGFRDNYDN
Test: PBM E-score of 8-mer (E-score (dimensionless, -0.5 to 0.5)); Tbr is Tbrain of the sea star Patiria miniata (Pm) or the sea urchin Strongylocentrotus purpuratus (Sp); higher = stronger binding preference
Conditions: the construct has about 5 more residues each side
The full ranking holds about 33,000 sequences; the median of “E-score (dimensionless, -0.5 to 0.5)” is about -0.046, and the highest 2% start at about 0.36. This is one part of a sample in which the highest values are shown more often than they occur.
Given measured PBM E-score of 8-mer, output criterion met if it is greater than or equal to 0.1 and criterion not met if not.

- ACGTGATG: criterion not met
- AGGTGGGA: criterion met
- CAGCATGA: criterion not met
- GGGTGATA: criterion met
- AGGTGGTA: criterion met

Ask | Test whether the sequence AGGTGGTG records PBM E-score of 8-mer of 0.1 or higher.
Reply | criterion met

Ask | Test whether the sequence GAACGCCC records PBM E-score of 8-mer of 0.1 or higher.
Reply | criterion met

Ask | Test whether the sequence GAATTGAA records PBM E-score of 8-mer of 0.1 or higher.
Reply | criterion not met
